system-name: Gal(a1-3)Gal(b1-3)GlcNAc
protocol-details: glycan array binding signal (z-score within array); higher = stronger binding
condition: glycan notation: IUPAC condensed, linker removed
Shown is part of a subset that was picked to be rich in the strongest signals.
So I've got a bunch of binders here, and I need their glycan array binding signal (z-score) values.
Answer with the value's number alone.

(Q) Identify measured glycan array binding signal (z-score) corresponding to AFCNVH (Aspergillus fumigatus) (protein) MSLRGFHTTCDTIVLKDKHILSSRCKRPDGTYSFSEIDLNDCLGNNNGKFVWGGESFVDSASQVNLALEGGEGRPMLHAQLNDWHGSVQSASVNLGECIQNEAGGLEYMHC
(A) -0.453

(Q) Annotate the binder BC2L-A (Burkholderia cenocepacia), Q1BKJ8_BURCA (protein) ADSQTSSNRAGEFSIPPNTDFRAIFFANAAEQQHIKLFIGDSQEPAAYHKLTTRDGPREATLNSGNGKIRFEVSVNGKPSATDARLAPINGKKSDGSPFTVNFGIVVSEDGHDSDYNDGIVVLQWPIG with its measured glycan array binding signal (z-score).
(A) -0.284

(Q) Please list glycan array binding signal (z-score) recorded for the binder SSA (Sclerotinia sclerotiorum), A7XUK7 (protein) MGFKGVGTYEIVPYQAPSLNLNAWEGKLEPGAVVRTYTRGDKPSDNAKWQVALVAGSGDSAEYLIINVHSGYFLTATKENHIVSTPQISPTDPSARWTIKPATTHQYEVFTINNKVSELGQLTVKDYSTHSGADVLSASAKTADNQKWYFDAK
(A) -0.253

(Q) In one line, give reported glycan array binding signal (z-score) of the entry LngA (Escherichia coli) (protein) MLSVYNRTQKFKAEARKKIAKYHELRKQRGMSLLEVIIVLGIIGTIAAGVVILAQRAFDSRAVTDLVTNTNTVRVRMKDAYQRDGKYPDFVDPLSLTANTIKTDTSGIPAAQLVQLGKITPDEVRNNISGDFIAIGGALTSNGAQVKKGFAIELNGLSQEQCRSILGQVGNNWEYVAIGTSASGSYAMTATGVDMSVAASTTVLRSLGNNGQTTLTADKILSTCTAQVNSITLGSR .
(A) 2.92

(Q) For the binder FimA-N1 (Actinomyces oris) (protein) MHHHHHHSSGVDLGTENLYFQSNATETPNYGNIKTDATGSLVIHKHLTGGGKDIGTPTGTAQNADDKGPAVEGVVFTAYPITDINLKDPAGWDTISNLSRTGVPDSACANPAAPTLGAHQFGTPKVSPATTKEGLATITEMPVQAYLVCETTTPGDIVQKAKPFVVTIPHPNTAAGADGQWIYDVNVYPKNEAIDVDKTIQAQK , give its reported glycan array binding signal (z-score).
(A) 1.89

(Q) Tell me glycan array binding signal (z-score) reported for FaeGac (Escherichia coli) (protein) WMTGDFNGSVDIGGSITADDYRQKWEWKVGTGLNGFGNVLNDLTNGGTKLTITVTGNKPILLGRTKEAFATPVTGGVDGIPHIAFTDYEGASVVLRKPDGETNKNGLAYFVLPMKNAGGTKVGSVKVNASYAGVLGRGGVTSADGELLSLFADGLSSIFYGGLPRGSELSAGSAAAARTKLFGSLSRDDILGQIQRVNANVTSLVDVAGSYRENMEYTDGNVVSAAYALGIANGQTIEATFNQAVTTSTQWSAPLNVAITYY
(A) -0.126
